Measured CC50 of individual entries
system: HEL; assay: Cytotoxicity against human HEL cells assessed as cell growth inhibition by cell counting method; type: cell-based
quantity kind: CC50 (µM)

1) C[C@H](NP(=O)(OCC(CCn1cnc2c(Cl)nc(N)nc21)COP(=O)(N[C@@H](C)C(=O)OCc1ccccc1)Oc1ccccc1)Oc1ccccc1)C(=O)OCc1ccccc1 (stereo partly drawn) :: 4
2) COc1nc(N)nc2c1ncn2CCC(CO)COP(=O)(N[C@@H](C)C(=O)OCC(C)(C)C)Oc1cccc2ccccc12 (stereo partly drawn) :: 7.6
3) COc1nc(N)nc2c1ncn2CCC(COP(=O)(N[C@@H](C)C(=O)OCC(C)(C)C)Oc1cccc2ccccc12)COP(=O)(N[C@@H](C)C(=O)OCC(C)(C)C)Oc1cccc2ccccc12 (stereo partly drawn) :: 2.5

----------
tested on: Human alphaherpesvirus 2; test: Antiviral activity against Herpes simplex virus 2 G infected in human HEL cells assessed as inhibition of virus-induced cytopathic effect; type: functional, cell-based; conditions: Human alphaherpesvirus 2, strain G
In this section, each of the compounds is paired with its reported EC50.
quantity kind: EC50 (µM)

1) C[C@H](NP(=O)(OCC(COP(=O)(N[C@@H](C)C(=O)OCc1ccccc1)Oc1ccccc1)OCn1cnc2c(=O)[nH]c(N)nc21)Oc1ccccc1)C(=O)OCc1ccccc1 (stereo not given in full) :: 2.5
2) C[C@H](NP(=O)(OCC(CO)OCn1cnc2c(=O)[nH]c(N)nc21)Oc1cccc2ccccc12)C(=O)OCc1ccccc1 (stereo not given in full) :: 0.5
3) COc1nc(N)nc2c1ncn2CCC(CO)COP(=O)(N[C@@H](C)C(=O)OCc1ccccc1)Oc1cccc2ccccc12 (stereo not given in full) :: 20

----------
test system: CCRF-CEM; experiment: Cytostatic activity human CEM cells assessed as reduction in cell viability after 72 hrs by cell counting method; type: cell-based; conditions: ccrf-cem, 72 h
Binarize CC50 at 20 µM; below is True, at or above is False.

1. CC(C)(NP(=O)(OCC(CO)OCn1cnc2c(=O)[nH]c(N)nc21)Oc1cccc2ccccc12)C(=O)OCc1ccccc1 (stereo not drawn) :: False
2. CCCOC(=O)[C@H](C)NP(=O)(OCC(CCn1cnc2c(OC)nc(N)nc21)COP(=O)(N[C@@H](C)C(=O)OCCC)Oc1cccc2ccccc12)Oc1cccc2ccccc12 (stereo partly drawn) :: True
3. C[C@H](NP(=O)(OCC(CCn1cnc2c(=O)[nH]c(/N=C/N(C)C)nc21)COP(=O)(N[C@@H](C)C(=O)OCc1ccccc1)Oc1cccc2ccccc12)Oc1cccc2ccccc12)C(=O)OCc1ccccc1 (stereo partly drawn) :: True
4. COc1nc(N)nc2c1ncn2CCC(COP(=O)(N[C@@H](C)C(=O)OCC(C)(C)C)Oc1cccc2ccccc12)COP(=O)(N[C@@H](C)C(=O)OCC(C)(C)C)Oc1cccc2ccccc12 (stereo partly drawn) :: True
5. COC(=O)[C@H](C)NP(=O)(OCC(CO)CCn1cnc2c(OC)nc(N)nc21)Oc1cccc2ccccc12 (stereo partly drawn) :: True
6. CC(C)OC(=O)[C@H](C)NP(=O)(OCC(CO)OCn1cnc2c(=O)[nH]c(N)nc21)Oc1cccc2ccccc12 (stereo partly drawn) :: False
7. C[C@H](NP(=O)(OCC(CO)CCn1cnc2c(=O)[nH]c(N)nc21)Oc1cccc2ccccc12)C(=O)OCc1ccccc1 (stereo partly drawn) :: False
8. CC(C)(NP(=O)(OCC(CO)OCn1cnc2c(=O)[nH]c(N)nc21)Oc1ccccc1)C(=O)OCc1ccccc1 (stereo not drawn) :: False
9. CCC(C)(C)COC(=O)[C@H](C)NP(=O)(OCC(CCn1cnc2c(OC)nc(N)nc21)COP(=O)(N[C@@H](C)C(=O)OCC(C)(C)CC)Oc1cccc2ccccc12)Oc1cccc2ccccc12 (stereo partly drawn) :: True
10. CC(=O)OCC(CO)OCn1cnc2c(Cl)nc(N)nc21 (stereo not drawn) :: False
11. CCC(C)(C)COC(=O)[C@H](C)NP(=O)(OCC(CO)CCn1cnc2c(OC)nc(N)nc21)Oc1cccc2ccccc12 (stereo partly drawn) :: True
12. C[C@H](NP(=O)(OCC(COP(=O)(N[C@@H](C)C(=O)OCc1ccccc1)Oc1ccccc1)OCn1cnc2c(=O)[nH]c(N)nc21)Oc1ccccc1)C(=O)OCc1ccccc1 (stereo partly drawn) :: False

----------
system: Human immunodeficiency virus 1; assay: Antiviral activity against HIV1 X4LAI.04 infected in human tonsillar tissues assessed as inhibition of virus-induced cytopathic effect by p24gag-based luminex assay; type: functional; conditions: Human immunodeficiency virus 1, X4LAI.04
pEC50: −log10 of the molar value.
quantity kind: pEC50

1) COc1nc(N)nc2c1ncn2CCC(CO)COP(=O)(N[C@@H](C)C(=O)OCc1ccccc1)Oc1ccccc1 (stereo partly drawn) :: 6.05
2) CCOC(=O)[C@H](C)NP1(=O)OCC(OCn2cnc3c(=O)[nH]c(N)nc32)CO1 (stereo partly drawn) :: 5.34
3) C[C@H](NP(=O)(OCC(CO)CCn1cnc2c(Cl)nc(N)nc21)Oc1ccccc1)C(=O)OCc1ccccc1 (mixture of isomers) :: 5.40
4) Nc1nc2c(ncn2CCC(CO)CO)c(=O)[nH]1 :: 4.96

----------
test system: HEL; assay: Cytotoxicity against human HEL cells assessed as cell growth inhibition by cell counting method; type: cell-based
quantity kind: CC50

1. C[C@H](NP(=O)(OCC(CCn1cnc2c(=O)[nH]c(N)nc21)COP(=O)(N[C@@H](C)C(=O)OCc1ccccc1)Oc1cccc2ccccc12)Oc1cccc2ccccc12)C(=O)OCc1ccccc1 (some centres not stated) :: > 100 µM
2. Nc1nc(O)c2ncn(CSC(CO)CO)c2n1 :: > 100 µM
3. Nc1nc(O)c2ncn(COC(CO)CO)c2n1 :: 273 µM
4. C[C@H](NP(=O)(OCC(CO)CCn1cnc2c(Cl)nc(N)nc21)Oc1ccccc1)C(=O)OCc1ccccc1 (mixture of isomers) :: 39 µM
5. CC(C)(NP(=O)(OCC(CCn1cnc2c(=O)[nH]c(N)nc21)COP(=O)(NC(C)(C)C(=O)OCc1ccccc1)Oc1cccc2ccccc12)Oc1cccc2ccccc12)C(=O)OCc1ccccc1 (configuration not stated) :: > 100 µM
6. COc1nc(N)nc2c1ncn2CCC(CO)CO :: > 100 µM
7. CC(C)(NP(=O)(OCC(CCn1cnc2c(=O)[nH]c(N)nc21)COP(=O)(NC(C)(C)C(=O)OCc1ccccc1)Oc1ccccc1)Oc1ccccc1)C(=O)OCc1ccccc1 (configuration not stated) :: > 100 µM

----------
tested on: CCRF-CEM; assay: Cytostatic activity human CEM cells assessed as reduction in cell viability after 72 hrs by cell counting method; assay type: cell-based; conditions: ccrf-cem, 72 h
This listing pairs compounds with measured CC50.
quantity kind: CC50 (µM)

1) COc1nc(N)nc2c1ncn2CCC(CO)COP(=O)(N[C@@H](C)C(=O)OCC(C)(C)C)Oc1cccc2ccccc12 (stereo partly drawn) :: 17
2) C[C@H](NP1(=O)OCC(OCn2cnc3c(Cl)nc(N)nc32)CO1)C(=O)OCc1ccccc1 (stereo partly drawn) :: 165
3) CCCOC(=O)[C@H](C)NP(=O)(OCC(CO)CCn1cnc2c(OC)nc(N)nc21)Oc1cccc2ccccc12 (stereo partly drawn) :: 17
4) C[C@H](NP(=O)(OCC(COP(=O)(N[C@@H](C)C(=O)OCc1ccccc1)Oc1cccc2ccccc12)SCn1cnc2c(=O)[nH]c(/N=C/N(C)C)nc21)Oc1cccc2ccccc12)C(=O)OCc1ccccc1 (stereo partly drawn) :: 17
5) C[C@H](NP(=O)(OCC(CCn1cnc2c(Cl)nc(N)nc21)COP(=O)(N[C@@H](C)C(=O)OCc1ccccc1)Oc1ccccc1)Oc1ccccc1)C(=O)OCc1ccccc1 (stereo partly drawn) :: 14
6) CC(C)(NP(=O)(OCC(CO)CCn1cnc2c(=O)[nH]c(N)nc21)Oc1ccccc1)C(=O)OCc1ccccc1 (stereo not drawn) :: 252

----------
assay: Cytotoxicity against human HEL cells assessed as alteration to cell morphology by microscopic analysis; assay type: cell-based
quantity kind: MCC

1. Nc1nc(O)c2ncn(COC(CO)CO)c2n1 [GANCICLOVIR] :: 100 to 350 µM
2. CC(C)(NP(=O)(OCC(CO)OCn1cnc2c(=O)[nH]c(N)nc21)Oc1ccccc1)C(=O)OCc1ccccc1 (configuration not stated) :: 50 to 100 µM
3. C[C@H](NP(=O)(OCC(CCn1cnc2c(Cl)nc(N)nc21)COP(=O)(N[C@@H](C)C(=O)OCc1ccccc1)Oc1ccccc1)Oc1ccccc1)C(=O)OCc1ccccc1 (some centres not stated) :: > 100 µM
4. CC(C)(NP(=O)(OCC(COP(=O)(NC(C)(C)C(=O)OCc1ccccc1)Oc1cccc2ccccc12)OCn1cnc2c(=O)[nH]c(N)nc21)Oc1cccc2ccccc12)C(=O)OCc1ccccc1 (configuration not stated) :: 50 to 100 µM
5. CC(C)(NP(=O)(OCC(CO)CCn1cnc2c(=O)[nH]c(N)nc21)Oc1ccccc1)C(=O)OCc1ccccc1 (configuration not stated) :: 50 to 100 µM
6. C[C@H](NP(=O)(OCC(CO)CCn1cnc2c(Cl)nc(N)nc21)Oc1ccccc1)C(=O)OCc1ccccc1 (mixture of isomers) :: > 100 µM
7. C[C@H](NP(=O)(OCC(CO)CCn1cnc2c(=O)[nH]c(N)nc21)Oc1ccccc1)C(=O)OCc1ccccc1 (some centres not stated) :: 50 to 100 µM
